- System: crabgrass
- ASSAY: Test B pre/postemergence crabgrass
- Assay type: in vivo, Digitaria sanguinalis
- ASSAY SETUP: Rate 125 g/ha, Postemergence; scale 0 to 10
Assign Crabgrass plant response rating to each entry below.
Numbers only.

Fill in Crabgrass plant response rating for each of the 5 molecules listed.
1. Cc1ccccc1-n1c(=O)on(C(=O)N(c2ccc(F)cc2)C2CCC2)c1=O
2. COC(=O)Cn1c(=O)on(C(=O)N(c2ccc(F)cc2)C(C)C)c1=O
3. CC(C)N(C(=O)n1oc(=O)n(Cc2ccco2)c1=O)c1ccc(Cl)cc1
4. CC(C)N(C(=O)n1oc(=O)n(-c2cccnc2)c1=O)c1ccc(F)cc1
5. CC(=O)OCCCCn1c(=O)on(C(=O)N(c2ccc(F)cc2)C(C)C)c1=O

stdout:
1
0
0
0
0
